I'd be grateful if you could share measured pIC50 for these entries.
targetSystem: Inhibitor of nuclear factor kappa-B kinase subunit beta (Homo sapiens)
assayExplanation: Inhibition of human recombinant C-terminal FLAG-epitope-tagged IKK2 expressed in baculovirus using biotinylated IkappaBalpha peptide as substrate assessed as decrease in [gamma-33P]-ATP incorporation in substrate after 30 mins by scintillation counting method
pIC50: −log10 of the molar value.

Please state pIC50 for every compound in the list that follows.
1. CS(=O)(=O)Nc1ccc2c(c1)-c1c(c(C(N)=O)nn1-c1cccc(O)c1)CC2
2. CS(=O)(=O)c1ccc(-n2nc(C(N)=O)c3c2-c2cc(NC(=O)Cc4ccccc4)ccc2CC3)cc1
3. CS(=O)(=O)c1ncc(Cl)c(C(=O)Nc2ccc3c(c2)-c2c(c(C(N)=O)nn2-c2ccc4c(c2)OCO4)CC3)n1
4. NC(=O)c1nn(-c2ccc(-c3cccnc3)cc2)c2c1CCc1ccc(NC(=O)c3ccccc3Cl)cc1-2
5. Cc1ccccc1C(=O)Nc1ccc2c(c1)-c1c(c(C(N)=O)nn1-c1ccc(Br)cc1)CC2
6. Cc1cccc(S(=O)(=O)Nc2ccc3c(c2)-c2c(c(C(N)=O)nn2-c2ccc(S(N)(=O)=O)cc2)CC3)c1

Output line:
1: 5.00 to 6.00; 2: 5.00 to 6.00; 3: ≥ 6.00; 4: 5.00 to 6.00; 5: ≥ 6.00; 6: 4.00 to 5.00

###

targetSystem: Inhibitor of nuclear factor kappa-B kinase subunit beta (Homo sapiens, UniProt O14920)
Sequence (O14920 whole entry): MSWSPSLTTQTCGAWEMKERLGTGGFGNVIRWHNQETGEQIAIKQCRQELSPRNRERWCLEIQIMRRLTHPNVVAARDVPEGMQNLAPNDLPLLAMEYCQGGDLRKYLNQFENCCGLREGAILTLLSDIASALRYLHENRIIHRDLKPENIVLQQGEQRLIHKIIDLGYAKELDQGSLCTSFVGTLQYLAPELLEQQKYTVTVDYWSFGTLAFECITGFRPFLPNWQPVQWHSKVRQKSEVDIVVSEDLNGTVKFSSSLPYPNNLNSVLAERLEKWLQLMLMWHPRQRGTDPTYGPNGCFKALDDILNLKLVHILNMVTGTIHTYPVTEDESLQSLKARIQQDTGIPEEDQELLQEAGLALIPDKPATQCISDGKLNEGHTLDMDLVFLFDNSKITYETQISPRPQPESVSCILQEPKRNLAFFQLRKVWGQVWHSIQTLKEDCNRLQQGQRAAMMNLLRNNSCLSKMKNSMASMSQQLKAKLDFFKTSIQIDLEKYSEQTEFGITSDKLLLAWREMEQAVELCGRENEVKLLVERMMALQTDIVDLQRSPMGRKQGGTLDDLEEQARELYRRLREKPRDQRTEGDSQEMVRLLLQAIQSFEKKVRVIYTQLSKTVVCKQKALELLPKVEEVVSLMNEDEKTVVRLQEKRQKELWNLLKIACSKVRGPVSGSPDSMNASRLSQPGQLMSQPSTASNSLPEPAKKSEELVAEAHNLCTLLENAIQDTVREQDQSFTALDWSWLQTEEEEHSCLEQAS
assayExplanation: Inhibition of human recombinant C-terminal FLAG-epitope-tagged IKK2 expressed in baculovirus using biotinylated IkappaBalpha peptide as substrate assessed as decrease in [gamma-33P]-ATP incorporation in substrate after 30 mins by scintillation counting method
I'd be grateful if you could share measured IC50 for these entries.

Below: 3 compounds and their reported IC50.
* CCOC(=O)/C=C/c1ccc(-n2nc(C(N)=O)c3c2-c2cc(NC(=O)c4ccccc4Cl)ccc2CC3)cc1 | 1 to 10 µM
* COc1cccc(CC(=O)Nc2ccc3c(c2)-c2c(c(C(N)=O)nn2-c2ccc(S(N)(=O)=O)cc2)CC3)c1 | 1 to 10 µM
* Cn1cnc(S(=O)(=O)Nc2ccc3c(c2)-c2c(c(C(N)=O)nn2-c2ccc(S(N)(=O)=O)cc2)CC3)c1 | 10 to 100 µM

Let's switch to this compound now.
Input line: Provide value of IC50 for this record tested with Inhibitor of nuclear factor kappa-B kinase subunit beta (Homo sapiens, UniProt O14920): CC(=O)CCc1ccc(-n2nc(C(N)=O)c3c2-c2cc(NS(C)(=O)=O)ccc2CC3)cc1
Output line: 1 to 10 µM

###

targetSystem: Inhibitor of nuclear factor kappa-B kinase subunit beta (Homo sapiens)
assayExplanation: Inhibition of human recombinant C-terminal FLAG-epitope-tagged IKK2 expressed in baculovirus using biotinylated IkappaBalpha peptide as substrate assessed as decrease in [gamma-33P]-ATP incorporation in substrate after 30 mins by scintillation counting method
recordedMetric: IC50

Below: 4 compounds and their reported IC50.
* NC(=O)c1nn(-c2cccc(F)c2)c2c1CCc1ccc(NC(=O)c3cccc(F)c3F)cc1-2 | 1000 to 10000 nM
* NC(=O)c1nn(-c2ccc(S(N)(=O)=O)cc2)c2c1CCc1ccc(NS(=O)(=O)c3cccc4ccccc34)cc1-2 | 10000 to 100000 nM
* NC(=O)c1nn(-c2ccc(OCC(O)CO)cc2)c2c1CCc1ccc(NC(=O)c3cccnc3Cl)cc1-2 (configuration not stated) | ≤ 1000 nM
* NC(=O)c1nn(-c2ccc(-c3ccc(C(=O)O)cc3)cc2)c2c1CCc1ccc(NC(=O)c3ccccc3Cl)cc1-2 | 1000 to 10000 nM

Please state IC50 for every compound in the list that follows.
1. NC(=O)c1nn(-c2cc(F)cc(F)c2)c2c1CCc1ccc(NC(=O)c3ccccc3Cl)cc1-2
2. C[S+]([O-])c1ccc(-n2nc(C(N)=O)c3c2-c2cc(NS(C)(=O)=O)ccc2CC3)cc1 (configuration not stated)
3. NC(=O)c1nn(-c2ccc(S(N)(=O)=O)cc2)c2c1CCc1ccc(NCc3ccc(Cl)cc3)cc1-2
4. Cc1ccccc1C(=O)Nc1ccc2c(c1)-c1c(c(C(N)=O)nn1-c1ccc(S(N)(=O)=O)cc1)CC2

Output line:
["≤ 1000 nM", "1000 to 10000 nM", "10000 to 100000 nM", "≤ 1000 nM"]

Please state IC50 for every compound in the list that follows.
1. CC(=O)Oc1cccc(C(=O)Nc2ccc3c(c2)-c2c(c(C(N)=O)nn2-c2ccc(S(C)(=O)=O)cc2)CC3)c1C
2. NC(=O)c1nn(-c2ccc(Br)cc2)c2c1CCc1ccc(N)cc1-2
3. NC(=O)c1nn(-c2ccc(Cl)cc2)c2c1CCc1ccc(NC(=O)c3ccccc3Cl)cc1-2
4. CC(C)S(=O)(=O)Nc1ccc2c(c1)-c1c(c(C(N)=O)nn1-c1ccc(S(N)(=O)=O)cc1)CC2

Output line:
1: 1000 to 10000 nM; 2: 1000 to 10000 nM; 3: ≤ 1000 nM; 4: 1000 to 10000 nM

Please state IC50 for every compound in the list that follows.
1. NC(=O)c1nn(-c2ccncc2)c2c1CCc1ccc(NC(=O)c3cc(Cl)ncc3Cl)cc1-2
2. CC(=O)c1ccc(C(=O)Nc2ccc3c(c2)-c2c(c(C(N)=O)nn2-c2ccc4c(c2)OCO4)CC3)cc1
3. NC(=O)c1nn(-c2ccc(S(N)(=O)=O)cc2)c2c1CCc1ccc(NC(=O)c3cccc(Br)c3)cc1-2
4. NC(=O)c1nn(-c2cccc(F)c2)c2c1CCc1ccc(NC(=O)c3cccc(Cl)c3Cl)cc1-2
5. NC(=O)c1nn(-c2ccc(S(N)(=O)=O)cc2)c2c1CCc1ccc(NS(=O)(=O)c3ccccc3)cc1-2

Output line:
1. ≤ 1000 nM
2. 1000 to 10000 nM
3. ≤ 1000 nM
4. 1000 to 10000 nM
5. 1000 to 10000 nM

###

targetSystem: Inhibitor of nuclear factor kappa-B kinase subunit beta (Homo sapiens, UniProt O14920)
Sequence (O14920 whole entry): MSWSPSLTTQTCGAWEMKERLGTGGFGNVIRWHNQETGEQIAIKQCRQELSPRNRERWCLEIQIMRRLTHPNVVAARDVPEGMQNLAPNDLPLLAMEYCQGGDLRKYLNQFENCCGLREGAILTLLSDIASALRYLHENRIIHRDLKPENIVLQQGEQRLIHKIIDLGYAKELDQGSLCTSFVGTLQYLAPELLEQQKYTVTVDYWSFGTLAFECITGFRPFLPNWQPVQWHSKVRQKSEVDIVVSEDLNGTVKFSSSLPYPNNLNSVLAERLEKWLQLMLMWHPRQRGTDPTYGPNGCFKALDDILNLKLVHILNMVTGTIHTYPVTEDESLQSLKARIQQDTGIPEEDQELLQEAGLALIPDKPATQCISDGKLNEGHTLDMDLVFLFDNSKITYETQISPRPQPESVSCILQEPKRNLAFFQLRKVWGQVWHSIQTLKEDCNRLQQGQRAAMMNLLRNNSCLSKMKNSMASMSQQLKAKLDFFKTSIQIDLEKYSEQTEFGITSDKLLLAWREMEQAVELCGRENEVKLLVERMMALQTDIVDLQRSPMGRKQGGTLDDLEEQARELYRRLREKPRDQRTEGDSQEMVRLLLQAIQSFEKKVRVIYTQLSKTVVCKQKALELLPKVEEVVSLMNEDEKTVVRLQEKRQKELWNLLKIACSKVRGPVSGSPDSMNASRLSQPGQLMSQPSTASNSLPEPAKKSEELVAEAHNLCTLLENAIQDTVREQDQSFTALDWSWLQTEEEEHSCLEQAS
assayExplanation: Inhibition of human recombinant C-terminal FLAG-epitope-tagged IKK2 expressed in baculovirus using biotinylated IkappaBalpha peptide as substrate assessed as decrease in [gamma-33P]-ATP incorporation in substrate after 30 mins by scintillation counting method
pIC50: −log10 of the molar value.
recordedMetric: pIC50

Below: 2 compounds and their reported pIC50.
• CN1CCN(c2ncc(Cl)c(C(=O)Nc3ccc4c(c3)-c3c(c(C(N)=O)nn3-c3ccc5c(c3)OCO5)CC4)n2)CC1 = ≥ 6.00
• NC(=O)c1nn(-c2ccc(NC(=O)COCc3ccccc3)cc2)c2c1CCc1ccc(NC(=O)c3ccccc3Cl)cc1-2 = 5.00 to 6.00

Please state pIC50 for every compound in the list that follows.
1. CC(=O)c1ccc(-n2nc(C(N)=O)c3c2-c2cc(NC(=O)c4cccnc4Cl)ccc2CC3)cc1
2. NC(=O)c1nn(-c2ccc(S(N)(=O)=O)cc2)c2c1CCc1ccc(NS(=O)(=O)c3cc(Cl)c(Cl)cc3Cl)cc1-2
3. NC(=O)c1nn(-c2ccc(NC(=O)c3ccccc3Cl)cc2)c2c1CCc1ccc(NC(=O)c3ccccc3Cl)cc1-2
4. NC(=O)c1nn(-c2ccc(S(N)(=O)=O)cc2)c2c1CCc1ccc(NS(=O)(=O)c3cc(Cl)ccc3Cl)cc1-2
5. CN(C)CCc1cc(C(=O)Nc2ccc3c(c2)-c2c(c(C(N)=O)nn2-c2ccc(F)cc2)CC3)c(Cl)cn1
6. NC(=O)c1nn(-c2ccc(S(N)(=O)=O)cc2)c2c1CCc1ccc(NS(=O)(=O)c3ccccc3Cl)cc1-2
7. NC(=O)c1nn(-c2ccc(-c3cccc(N)c3)cc2)c2c1CCc1ccc(NC(=O)c3ccccc3Cl)cc1-2
8. CS(=O)(=O)c1ccc(-n2nc(C(N)=O)c3c2-c2cc(NC(=O)c4cc(S(C)(=O)=O)ccc4Cl)ccc2CC3)cc1

Output line:
1. 5.00 to 6.00
2. 5.00 to 6.00
3. 5.00 to 6.00
4. 5.00 to 6.00
5. ≥ 6.00
6. 4.00 to 5.00
7. 5.00 to 6.00
8. ≥ 6.00
